This collection of values is drawn from PubChem BioAssay.

Experiment: TLR3 IRF3 reporter activation blockers – cell-based, poly I:C stimulus, luciferase, 10K MLSCN set, primary screen (AID 602277)
Conditions: HEK293-TLR3 RL24 IRF3 luciferase reporter, at 10 µM, stronger effect = higher value
Could you label it 1 (yes) if measured inhibition is 10% or higher, and 0 (no) otherwise?

* Cc1ccc(-c2nnn(CC(=O)N(Cc3cccs3)C(C(=O)NC(C)(C)C)c3ccc(C)o3)n2)o1 (stereo unspecified) | 1 (yes)
* O=S1(=O)CCC(NS(=O)(=O)/C=C/c2ccccc2)C1 (stereo unspecified) | 1 (yes)
* N#Cc1cc2ccc(N3CCOCC3)cc2cc1C#N | 1 (yes)
* CSC1=C(C#N)C(c2ccc(Cl)cc2)C2=C(CC(C)(C)CC2=O)N1 (stereo unspecified) | 1 (yes)
* CCOC(=O)Cc1nnc2c(Nc3ccccc3F)nc3nonc3n12 | 0 (no)
* O=S(=O)(c1cccc(-c2nnco2)c1)N1CCCC1 | 1 (yes)

---

Biological target: Alpha-2C adrenergic receptor (Homo sapiens)
Assay: compounds altering alpha2C-coupled GIRK flux – cell-based, HEK293 alpha2C/GIRK1/2, thallium flux, primary screen (AID 624);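 also: slope of fluorescence ratio to pre-addition baseline per second over 15 to 24 s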
Conditions: thallium flux BTC fluorescence, at 10 µM, actives lie on both sides
Calls of active or inactive are those of the source.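 The calls were made as follows: active = fluorescence slope after compound addition differing from the mean of all screened samples at 99.7% confidence, in either direction; inactive = the rest.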
Outcome codes: active, inactive

* FC(F)(F)c1cc(-c2ccco2)nc(NCc2ccco2)n1 | inactive
* O=c1[nH]cnc2c1nc(SCc1ccccc1)n2C1OC(CO)C(O)C1O (centres undefined) | inactive
* Cc1ccc(NC(=O)c2cc(-c3ccc(C)o3)nc3ccccc23)nc1 | inactive
* O=C(CCSc1nccn1Cc1ccccc1)N1CCOCC1 | inactive
* CCCCN=CC1=C(O)C(C(=O)OC)C(C)(C)CC1=O (centres undefined) | inactive
* CCOC(=O)CC(=O)c1cc(OC)c(OC)c(OC)c1 | inactive
* CCC(=O)OCCn1c(=O)c2cc3c(=O)n(CCOC(=O)CC)c(=O)c3cc2c1=O | inactive
* Cc1ccccc1C1CC(c2ccccc2)Nc2ncnn21 (centres undefined) | inactive
* O=S(=O)(c1ccccc1)c1nc(-c2cccs2)oc1NCC1CCCO1 (centres undefined) | inactive
* Cc1ccc(S(=O)(=O)Cn2nnnc2CN(Cc2ccco2)CC2CCCO2)cc1 (centres undefined) | inactive
* CCOc1cc(C(=O)NCc2ccncc2)cc(OCC)c1OCC | inactive
* CC(=O)Oc1ccc(-c2ccc(C(=O)O)cc2)cc1 | inactive
* CCOc1ccccc1NC(=O)CN(c1ccc(C)cc1)S(=O)(=O)c1c(C)noc1C | inactive
* CC(=O)C1=C(C)Nc2ncnn2C1c1cccc(OCc2ccccc2)c1 (centres undefined) | inactive
* COc1ccc(CCNC(=O)CSc2nncn2N)cc1OC | inactive
* CCOc1ccccc1OCCCCN1CCCC1 | active
* CC(=O)CCc1c(C)[nH]c2ccccc2c1=O | inactive
* Nc1nc(SCc2nc3scc(-c4cccs4)c3c(=O)[nH]2)n[nH]1 | inactive
* CCOc1ccc(OCCCCN(C)C)cc1 | inactive
* CC(=O)c1ccc(NC2OC(C)C(O)C(O)C2O)cc1 (centres undefined) | inactive
* COc1ccc(-c2nc3c(c(SCC(=O)N4CCOCC4)n2)COC(C)(C)C3)cc1 | inactive
* O=S(=O)(NC1CCCCC1NS(=O)(=O)c1ccc(F)cc1)c1ccc(F)cc1 (centres undefined) | inactive
* CCCCn1c2c(c3ccccc31)CCc1nonc1-2 | inactive
* NC(=O)c1cccc(S(=O)(=O)N2CCCCC2)c1 | inactive

---

Molecular target: Voltage-gated potassium channel subunit beta-2 (Rattus norvegicus) (UniProt P62483)
Sequence (P62483 whole entry, looked up): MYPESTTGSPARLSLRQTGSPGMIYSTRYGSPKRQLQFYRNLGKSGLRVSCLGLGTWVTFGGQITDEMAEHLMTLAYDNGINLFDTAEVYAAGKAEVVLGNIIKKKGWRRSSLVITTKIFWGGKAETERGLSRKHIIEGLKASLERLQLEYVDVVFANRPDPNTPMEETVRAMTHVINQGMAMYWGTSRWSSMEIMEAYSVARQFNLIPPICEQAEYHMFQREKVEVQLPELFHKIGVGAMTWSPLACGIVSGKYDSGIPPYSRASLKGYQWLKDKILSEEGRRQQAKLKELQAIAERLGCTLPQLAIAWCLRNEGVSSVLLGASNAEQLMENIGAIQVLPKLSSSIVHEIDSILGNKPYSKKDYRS
Assay: inhibitors of rat Kvbeta2 reductase activity – biochemical, NADPH fluorescence, primary screen (AID 622);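 also: slope of raw intensity against log time taken from 70 to 1610 s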
Conditions: recombinant KvBeta, 4-cyanobenzaldehyde reduction, at 10 µM, stronger effect = higher value
Below, each entry is listed with its recorded fluorescence slope.
experimental.readout: fluorescence slope

* CCSc1nnc(NC(=O)CCNS(=O)(=O)c2cc(Br)cnc2N)s1 | -0.444
* CC1(C)CC(=O)C2=C(C1)NC(=O)CC2c1ccc(N(CCC#N)CCC#N)cc1 (stereo not drawn) | -0.376
* O=C(Nc1ccc2c(c1)OCCO2)c1ccco1 | -0.488
* COc1ccccc1NC(=O)c1ccc(COc2ccccc2OC)o1 | -0.605
* Cn1c(/C=N/n2cnnc2)nc2ccccc21 | -0.0404
* O=C(Nc1ccc(N2CCCC2)cc1)c1cccc(F)c1 | -0.436
* CSCCC(C(=O)Nc1ccc2c(c1)OCO2)N1C(=O)c2ccccc2C1=O (stereo not drawn) | -0.61
* CC(=O)N1CCc2cc(Br)cc(S(=O)(=O)NCCCN3CCCC(C)C3)c21 (stereo not drawn) | -0.47
* Cc1cccc(N2CCN(C(=O)C3CCCN(S(=O)(=O)c4c(C)noc4C)C3)CC2)c1C (stereo not drawn) | -0.571
* Cc1nc(SCC(=O)Nc2cc(C)on2)c2c3c(sc2n1)CCCC3 | -0.579
* COc1cccc(C(=O)OCn2nnc3ccccc3c2=O)c1OC | -0.441
* CCCc1c(O)nc(SCC(=O)NCCc2ccc(OC)c(OC)c2)[nH]c1=O | -0.486
* CC(=O)c1cccc(NS(=O)(=O)c2ccc3c(c2)oc(=O)n3C)c1 | -0.437
* Cc1nnc(SCCn2c(Br)nc3c2c(=O)n(C)c(=O)n3C)s1 | -0.374
* COc1ccc(NC(=O)C2CCCN(S(=O)(=O)c3cccc4cccnc34)C2)cc1OC (stereo not drawn) | -0.559
* Oc1cccc(C=NCc2ccccc2)c1O | -0.46
* CCSC1=C(C#N)C(c2ccccc2OC)CC(=O)N1 (stereo not drawn) | -0.436
* C=CCn1c(N)c(C(=O)NCCC2=CCCCC2)sc1=S | -0.626
* CCN(Cc1cc2cc(OC)ccc2[nH]c1=O)C(=O)c1ccncc1 | -0.498
* CCOC(=O)C1=C(NC#N)OC(C)=C(C)C1c1ccc(O)cc1 (stereo not drawn) | -0.487
* COc1ccc(OC)c(NC(=O)CCN2CCC(C)CC2)c1 | -0.59
* CCC(C(=O)OCC(=O)Nc1c(C)n(C)n(-c2ccccc2)c1=O)c1ccccc1 (stereo not drawn) | -0.539
* CC1CCCN(C(=O)c2cc(F)c(F)cc2Cl)C1 (stereo not drawn) | -0.617

---

Each record here notes measured inhibition.
Assay: inhibitors of TNFa-induced NFkB p65 translocation, primary screen, imaging, HUVEC, MLSMR starter and 10KST1 sets (AID 438);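 also: compound added about 3h40 before a 20 min TNFalpha stimulation; signal is the nuclear over cytoplasmic p65 intensity ratio per well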
Conditions: HUVEC TNFa-induced p65 nuclear translocation; at 2 µM, stronger effect = higher value, 0% TNFa-plus-vehicle, 100% no-TNFa wells
experimental.readout: inhibition (%)

• CCNc1nc(N2CCOCC2)nc(N(c2ccccc2)c2ccccc2)n1 = 8.2
• Cc1cccc(CC(=O)Nc2c3c(nn2-c2cccc(Cl)c2)CS(=O)C3)c1 (stereo unspecified) = 1
• Oc1cccc(C=NCc2ccccc2)c1O = -2.5
• COc1ccc(OCCSc2nc3ccccc3n2CC(=O)O)cc1 = -9.2
• CCC(Sc1ncccc1C(=O)O)C(=O)N1CCCC1 (stereo unspecified) = 10
• COc1cccc(C2CC(c3ccc(F)cc3)Nc3nc(N)nn32)c1 (stereo unspecified) = -6.5
• CC1=C(C(=O)Nc2ccccc2)C(c2cccs2)C(C#N)=C(SCC#N)N1 (stereo unspecified) = -16.4
• Cc1ccc(S(=O)(=O)N2CCOCC2)cc1C(=O)Nc1nc(-c2cccnc2)cs1 = 10.3
• N#CC(C(=O)c1ccco1)c1ccccn1 (stereo unspecified) = 2.8
• COc1ccc(C(=O)N(CCN2CCOCC2)CC(=O)NC2CCCC2)cc1OC = 0.5
• Cc1ccc2[nH]c(=O)c(CN(Cc3ccc4c(c3)OCO4)Cc3nnnn3Cc3ccco3)cc2c1 = 2.2

---

# nuclei count per entry
Experiment: reduction of polyQ htt aggregates in cells – imaging, exon1htt(103Q)mCFP cells, high-content imaging, primary screen (AID 483);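 also: compound exposure lasted 3 days before fixation; percent of the per-plate median nuclei count of sample wells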
Conditions: exon1htt(103Q)mCFP cell line, aggregate imaging, at 2 µM; measured here: cell count, toxicity
experimental.readout: nuclei count (%)

• COc1ccc(-c2noc(CSc3nc(N)c(-c4ccccc4)c(=O)[nH]3)n2)cc1OC = 97.1
• COc1ccc(N2CCN(C(c3cccs3)c3nnnn3C3CCCC3)CC2)cc1 (stereo not given) = 104
• O=C(C1CCCN(S(=O)(=O)c2cccc3nonc23)C1)N1CCC(Cc2ccccc2)CC1 (stereo not given) = 101
• Fc1cccc2sc(N3CCOCC3)nc12 = 68.5
• Cc1ccc(-c2cc(C(=O)NCCN3CCOCC3)no2)cc1 = 69.9
• O=C(Nc1nc(-c2cccs2)cs1)c1cccc(S(=O)(=O)N2CCCCC2)c1 = 110
• O=C(NCc1ccco1)c1ccc2c(=O)n(CC3CCCO3)c(=S)[nH]c2c1 (stereo not given) = 120
• CCCCN1C(=O)C2C(C(=O)Nc3cccc(OC)c3)C3C=CC2(O3)C1C(=O)NC1CCCCC1C (stereo not given) = 109
• CCCCCCOC(=O)C(C#N)c1nc2ccccc2nc1N1CCCCC1 (stereo not given) = 89.3
• CCN(Cc1cc2ccccc2[nH]c1=O)S(=O)(=O)c1ccccc1 = 104
